Tested on: HCV replicon 1AY93H
Test: Cell-based HCV Replicon Assay A, replicon 1AY93H
Conditions: read-out: 1A Y93H IC50, replicon 1AY93H
Measurement Type: IC50 (nM)
Numbers only, in nM.

1. COC(=O)N[C@H](C(=O)N1CCC[C@H]1c1ncc(-c2cc(F)c3c(c2)OC(c2ncc(-c4ccc(F)cc4)s2)n2c-3cc3cc(-c4cnc([C@@H]5CCCN5C(=O)[C@@H](NC(=O)OC)C(C)C)[nH]4)ccc32)[nH]1)C(C)C (single isomer, unassigned) [Compound 34] : 0.0331

Query: IC50; subject: COC(=O)N[C@H](C(=O)N1CCC[C@H]1c1ncc(-c2cc(F)c3c(c2)OC(c2cnc(C(F)F)s2)n2c-3cc3cc(-c4cnc([C@@H]5CCCN5C(=O)[C@@H](NC(=O)OC)C(C)C)[nH]4)ccc32)[nH]1)C(C)C (single isomer, unassigned) [Compound 19]
1.24

====

Test system: HCV replicon 1B
Assay: Cell-based HCV Replicon Assay B, replicon 1B
Details: Hepatitis C virus
Measurement Type: IC50

Some solved entries appear below for comparison.
1) CCCc1ncc(C2Oc3cc(-c4cnc([C@@H]5CCCN5C(=O)[C@@H](NC(=O)OC)C(C)C)[nH]4)cc(F)c3-c3cc4cc(-c5cnc([C@@H]6C[C@H]7C[C@H]7N6C(=O)C(NC(=O)OC)C6CCOC(C)(C)C6)[nH]5)ccc4n32)s1 (single isomer, unassigned) [Compound 104] : 3 pM
2) COC(=O)N[C@H](C(=O)N1CCC[C@H]1c1ncc(-c2cc(F)c3c(c2)OC(c2cnc(-c4ccncc4)s2)n2c-3cc3cc(-c4cnc([C@@H]5CCCN5C(=O)[C@@H](NC(=O)OC)C(C)C)[nH]4)ccc32)[nH]1)C(C)C (single isomer, unassigned) [Compound 409] : 7 pM
3) COC(=O)N[C@H](C(=O)N1CCC[C@H]1c1nc(-c2cc(F)c3c(c2)OC(c2cnc(C4CCCCC4)s2)n2c-3cc3cc(-c4cnc([C@@H]5CCCN5C(=O)[C@@H](NC(=O)OC)C(C)C)[nH]4)ccc32)c[nH]1)C(C)C (stereo partly shown) [Compound 415] : 2 pM

Param readout= IC50; system= HCV replicon 1B; entry= COC(=O)NC(C(=O)N1CCC[C@H]1c1ncc(-c2ccc3c(c2)cc2n3C(c3nc(C(F)(F)F)cs3)Oc3cc(-c4cnc([C@@H]5CCCN5C(=O)[C@@H](NC(=O)OC)C(C)C)[nH]4)cc(F)c3-2)[nH]1)C1C[C@@H](C)O[C@@H](C)C1 (single isomer, unassigned) [Compound 76] ; returns value.
3 pM

====

For each record, write down the corresponding IC50.
System: HCV replicon 1AQ30D
Assay: Cell-based HCV Replicon Assay B, replicon 1AQ30D
Conditions: Hepatitis C virus, read-out: 1A Q30D IC50 (nM), replicon 1AQ30D
Numbers only, in nM.

1. COC(=O)N[C@H](C(=O)N1CCC[C@H]1c1ncc(-c2cc(F)c3c(c2)OC(c2cnc(-c4ccc(Cl)cc4)s2)n2c-3cc3cc(-c4cnc([C@@H]5CCCN5C(=O)[C@@H](NC(=O)OC)C(C)C)[nH]4)ccc32)[nH]1)C(C)C (single isomer, unassigned) : 0.07

Next up:
Item under review: CCc1ncc(C2Oc3cc(-c4cnc([C@@H]5CCCN5C(=O)[C@@H](NC(=O)OC)C(C)C)[nH]4)cc(F)c3-c3cc4cc(-c5cnc([C@@H]6CCCN6C(=O)C(NC(=O)OC)C6CCOC(C)(C)C6)[nH]5)ccc4n32)s1 (single isomer, unassigned) . Reported IC50?
0.03
